tested on: PPARg:RXRa DBDmut IVT, anti-RXR (DBD mutation: RXRa K156A/R161A, NR concentration 270 nM, RXRa partner concentration 90 nM); experiment: PBM binding z-score (relative to random genomic background probes); higher = stronger binding; sequences stand for … in GC…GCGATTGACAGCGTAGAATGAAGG
Each entry gets class 0 if its PBM binding z-score stays under 3, and class 1 if its PBM binding z-score is 3 or above.

>  <biosequence>
AGAATGAGGTTGTTAAGATCAGGGAATTGCGGTC

>  <assigned-class>
class 0

$$$$
>  <biosequence>
TGAATGAGGTTATAAGATGAGGGAACGTTGCAAA

>  <assigned-class>
class 0

$$$$
>  <biosequence>
TAGCCTAGGTCAGAACGGGCCAGTATACGCTATA

>  <assigned-class>
class 0

$$$$
>  <biosequence>
CGATCGAGGGCATGAGTTGATAGCAAATGCCGAT

>  <assigned-class>
class 0

$$$$
>  <biosequence>
CGTCCAAGGTCAACGGTCAGTGAAGAGATGACGG

>  <assigned-class>
class 1

$$$$
>  <biosequence>
TCGTATAGGTAAATGCTAGGTGAAAGTCCGATCT

>  <assigned-class>
class 0

$$$$
>  <biosequence>
GCAGGCAGGTGAAACGCAGGTAACTCAGGGTGGC

>  <assigned-class>
class 0

$$$$
>  <biosequence>
TAGCCTAGGTCATGGGCCGGTATACCACGCGAAC

>  <assigned-class>
class 0

$$$$
>  <biosequence>
TCGAGTAGGTTAGGGTCATTCAGAATGGCGTCGA

>  <assigned-class>
class 0

$$$$
>  <biosequence>
TCGAGTGGGTTACCAATGGGGCATTCAGCTTTCT

>  <assigned-class>
class 0

$$$$
>  <biosequence>
CAAACTAGGTCACGAAAGGTCAAAGACGAATGAC

>  <assigned-class>
class 1

$$$$
>  <biosequence>
CCTCGGACGACAACAGGAGGTCAGAGCTGCCAGA

>  <assigned-class>
class 0

$$$$
>  <biosequence>
CGTCCAAGGTCAATGCTAGGTCAGAGAAAGCATT

>  <assigned-class>
class 1

$$$$
>  <biosequence>
CAAACTAGGTCAGCGGAAGGTCAAAGTCCGCATG

>  <assigned-class>
class 1

$$$$
>  <biosequence>
TATACAGGGTCAAAGGCCCGAGTACGAATGTCGA

>  <assigned-class>
class 0

$$$$
>  <biosequence>
CCAGACAGGTGAGAAGGTAGCTCAGCCTCGATTA

>  <assigned-class>
class 0

$$$$
>  <biosequence>
TCTGCTAGGTCAGTTGGTCAGCTACCGAGCTGCC

>  <assigned-class>
class 0

$$$$
>  <biosequence>
AGTCTAAGTTCACTAGGTAACGTAAGATTCAGCT

>  <assigned-class>
class 0

$$$$
>  <biosequence>
TATACAGCGTCAAAGGCCAGAGTACGAATGTCGA

>  <assigned-class>
class 0

$$$$
>  <biosequence>
AGTCAAAGTTCATCTAGGTACCGTAAGATATGCT

>  <assigned-class>
class 0

$$$$
>  <biosequence>
TGTCAAAGTTCAAAGGTAACGTGAGTATCCACAC

>  <assigned-class>
class 0

$$$$
>  <biosequence>
TCTAGTTAGTCAAAGGTCACACACTCGAAATGCG

>  <assigned-class>
class 0

$$$$
>  <biosequence>
CGAACTAGGTCATTGACAGGACGGTGAATAGTAA

>  <assigned-class>
class 1

$$$$
>  <biosequence>
TCATATAGGTAAAAGGTGAAAATCGGTGTGGTAA

>  <assigned-class>
class 1

$$$$

---

tested on: PPARg:RXRa 30nM:10nM, anti-RXR (NR concentration 30 nM, RXRa partner concentration 10 nM); experiment: PBM binding z-score (relative to random genomic background probes); higher = stronger binding; sequences stand for … in GC…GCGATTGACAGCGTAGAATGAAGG
Each entry gets f if its PBM binding z-score stays under 2, and t if its PBM binding z-score is 2 or above.

>  <biosequence>
GTACCAAGGTGAATAGGACGTTGATGAGTAGGCG

>  <assigned-class>
f

$$$$
>  <biosequence>
ACAGCCAGGTGAGTGAAGGTAACTCAGCTGGACG

>  <assigned-class>
f

$$$$
>  <biosequence>
GCTTTCGGGTCAAAGGTTATAGCATGAATAGAAT

>  <assigned-class>
t

$$$$
>  <biosequence>
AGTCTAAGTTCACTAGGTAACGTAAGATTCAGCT

>  <assigned-class>
f

$$$$
>  <biosequence>
ACAGACAGGTGAGTGAAGGTAACTCCGCTGGACG

>  <assigned-class>
f

$$$$
>  <biosequence>
ACTAGCAGGCCAAGTTTGGGGCACTCAAACAAAG

>  <assigned-class>
f

$$$$
>  <biosequence>
GCTAATAGTTGAAAGGGCAACCGAATGATTCTCG

>  <assigned-class>
t

$$$$
>  <biosequence>
CAAACTAGGTCAAGAGGTCAAAGTCCGCTTCCCG

>  <assigned-class>
t

$$$$
>  <biosequence>
CCGGCTAGGTCATGGTCAGCTAATCTACAGTATG

>  <assigned-class>
f

$$$$
>  <biosequence>
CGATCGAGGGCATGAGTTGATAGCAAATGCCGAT

>  <assigned-class>
f

$$$$
>  <biosequence>
GCTAGTTGGTCAGTAAAGGGTCACACACCGGTCG

>  <assigned-class>
f

$$$$
>  <biosequence>
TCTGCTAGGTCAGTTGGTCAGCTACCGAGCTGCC

>  <assigned-class>
f

$$$$
>  <biosequence>
CCTTACGGGTCACTCCAGATTATAGCATCGGAGT

>  <assigned-class>
f

$$$$
>  <biosequence>
ATATGTAGGTTATCGCGTCATTCAGTTTGCGCAT

>  <assigned-class>
f

$$$$
>  <biosequence>
CCAATTAGTTGACCATAAGGGCAACCGAAGCTCG

>  <assigned-class>
f

$$$$
>  <biosequence>
TCGAGTAGGTTACCAATGGGGGATTCAGCTTTCT

>  <assigned-class>
f

$$$$
>  <biosequence>
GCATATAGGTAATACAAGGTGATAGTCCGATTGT

>  <assigned-class>
f

$$$$
>  <biosequence>
AGAATGAGGTTACCAAATATCAGGGAAACGCTTG

>  <assigned-class>
f

$$$$
>  <biosequence>
TCATATAGGTAAACAGGTGCAAGTCCGTAAGTTA

>  <assigned-class>
t

$$$$
>  <biosequence>
CAAACTAGGTCTAAGGTCAAAGTCGAGCCAACCA

>  <assigned-class>
t

$$$$
>  <biosequence>
ATCTCAAGGTAAGACTCAGTTCAGTGAAGAACGC

>  <assigned-class>
f

$$$$
>  <biosequence>
TCTTGTAGATCAGCATGTTAAGAAAGCTGGCCAA

>  <assigned-class>
t

$$$$
>  <biosequence>
GGAACGAGGGCATCCGAGTTGATAGCATGGCGAT

>  <assigned-class>
f

$$$$
>  <biosequence>
ATATGTAGATTAAGGGTCATTCAGGTTGGTTCGC

>  <assigned-class>
t

$$$$
>  <biosequence>
CAAACTAGGTCACGAAACGTCAAAGTCGAATGAC

>  <assigned-class>
t

$$$$
>  <biosequence>
TAGCCTAGGTCAGATCGGGCCCGTATACGCTATA

>  <assigned-class>
f

$$$$

---

Some sequences, each annotated with its measured PBM binding z-score.
system: PPARg DBDmut IVT, anti-PPARg (DBD mutation: PPARg1 K132A/R137A, NR concentration 270 nM); assay: PBM binding z-score (relative to random genomic background probes); higher = stronger binding; sequences stand for … in GC…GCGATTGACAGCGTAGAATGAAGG

>  <biosequence>
CAAACTAGGTCACGAAATGTCAAAGTCGAATGAC

>  <PBM binding z-score>
5.58

$$$$
>  <biosequence>
AATACACGGTCATCGTAGGCCAGAGTACGCACAG

>  <PBM binding z-score>
0.51

$$$$
>  <biosequence>
AGAATGAGGTTAAGACCAGGGAAACAGAATACAT

>  <PBM binding z-score>
1.16

$$$$
>  <biosequence>
CCTAGTTGGTCACGGTCACACACGCTATAGGTAC

>  <PBM binding z-score>
1.48

$$$$
>  <biosequence>
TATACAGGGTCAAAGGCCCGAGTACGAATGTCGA

>  <PBM binding z-score>
0.769

$$$$
>  <biosequence>
CCTAGCAGGCCAGGGTCCCTCAAGCATTTCGCTT

>  <PBM binding z-score>
-1.43

$$$$
>  <biosequence>
GCTTACGGGTCATAGGTTATAGCATGAATAGAAT

>  <PBM binding z-score>
1.56

$$$$
>  <biosequence>
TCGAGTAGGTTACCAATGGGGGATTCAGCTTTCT

>  <PBM binding z-score>
5.09

$$$$
>  <biosequence>
CTCGAAAGATCGGTTGAGGTGAGTATACGGATAA

>  <PBM binding z-score>
0.142

$$$$
>  <biosequence>
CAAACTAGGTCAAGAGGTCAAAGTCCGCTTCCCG

>  <PBM binding z-score>
1.19

$$$$
>  <biosequence>
TCAGACAGATGAAGGTAACTCAGGTACGCAGTCG

>  <PBM binding z-score>
-0.478

$$$$
>  <biosequence>
TCTTGTAGATCAAGCACGTTAAGAAAGCCTGAGT

>  <PBM binding z-score>
0.566

$$$$
